TGI by entry:
- Tested on: K-562 leukemia
- assay-explanation: NCI tumour cell line growth inhibition, 48 h
assay-metric: TGI

INSERT INTO assay_data (molecule, recorded_result) VALUES
  ('Nc1c(C(=O)c2ccc(Cl)c(Cl)c2)[nH]c(NCc2ccccc2)c1C(=S)Nc1ccccc1', '> 100 µM'),
  ('Cn1c(=O)oc2cc(C3CCC(=O)N3Cc3csc(-c4ccccc4)n3)ccc21 (stereo not given)', '> 100 µM'),
  ('CC1(C)CC(C)(C)c2cc(NC(=S)Nc3ccc([N+](=O)[O-])cc3)ccc2S1', '> 60 µM'),
  ('N#Cc1nc(CCc2nc(C#N)c(N)o2)oc1N', '> 10 µM'),
  ('CC(C)(C)C#COC(=O)c1ccccc1', '> 100 µM'),
  ('C=C1CCC[C@@H](C)C(O)[C@@H]2OC(=O)C(=C)[C@@H]2C[C@@H](OC(C)=O)[C@@]2(C)CC[C@@H]1O2 (stereo not given in full)', '12.1 µM'),
  ('CC1=NN(C(=O)CC(=O)Nc2cccc(C)c2)C(=O)C1N=Nc1ccc(S(=O)(=O)CCOS(=O)(=O)O)cc1 (stereo not given)', '> 100 µM'),
  ('C=CCC(O[Si](C)(C)C(C)(C)C)c1cc(O[Si](C)(C)C(C)(C)C)ccc1OC (stereo not given)', '> 100 µM'),
  ('OCc1ccc(N(Cc2ccc(F)cc2)Cc2ccc(F)cc2)cc1Cl', '23.1 µM'),
  ('COC(=O)c1sc(=O)sc1SCc1cccc(CSc2sc(=O)sc2C(=O)OC)c1', '> 100 µM');

====

- Test system: DU-145 prostate
- assay-explanation: NCI tumour cell line growth inhibition, 48 h
TGI by entry:
assay-metric: TGI

INSERT INTO results (compound, assay_metric, recorded_result) VALUES
  ('ClC1=NN=C(c2c[nH]c3ccccc23)CC1NCc1ccccc1 (stereo not drawn)', 'TGI', '> 100 µM'),
  ('C=C(C)C1CC(=O)C(C)=C(O)C1 (stereo not drawn)', 'TGI', '> 100 µM'),
  ('Cc1cccc(C2NC(=O)c3ccccc3N2)c1 (stereo not drawn)', 'TGI', '> 100 µM');

====

- Test system: SN12C renal
- assay-explanation: NCI tumour cell line growth inhibition, 48 h; in the data active means GI50 below about 0.43 µM; inactive means the rest
Labels: yes (1) = active, no (0) = inactive

INSERT INTO results (sample_smiles, cat) VALUES
  ('O=c1c(Cc2ccc3c(c2)OCO3)nnc2sc(-c3cc(F)c(Cl)cc3Cl)nn12', 'no (0)'),
  ('O=C1C(=O)c2c(nc3ccc(C(F)(F)F)cn23)-c2ccccc21', 'yes (1)'),
  ('O=C1c2cccc3cccc(c23)C(=O)N1CCCCCN1CCN(CCN=c2cc3n(-c4ccc(Cl)cc4)c4ccccc4nc-3cc2Nc2ccc(Cl)cc2)CC1', 'no (0)'),
  ('CC(C)C[C@@H](N)[C@@H](O)C(=O)N[C@H](C(=O)N[C@H](C(=O)N[C@@H](CC(=O)O)C(=O)O)C(C)C)C(C)C', 'no (0)'),
  ('C[C@@H]1C[C@@H]([C@H](O)CC2CC(=O)NC(=O)C2)C(=O)[C@@H](C)C1', 'yes (1)'),
  ('O=C1NC(=NCCc2ccc(Cl)cc2)S/C1=C\c1ccc2ncccc2c1', 'no (0)'),
  ('CCOC(=O)NC(=S)N(CC(=O)c1cc(OC)c(OC)c(OC)c1)c1ccc(Cl)cc1', 'no (0)'),
  ('CN1CCN(C2=NC(=O)/C(=C\c3ccc(N(C)C)cc3)S2)CC1', 'no (0)');

====

TGI by entry:
- Test system: NCI-H23 lung
- assay-explanation: NCI tumour cell line growth inhibition, 48 h
assay-metric: TGI

INSERT INTO assay_data (compound, experimental_system, assay_metric, recorded_result) VALUES
  ('O=S(=O)(Nc1nc2ccccc2nc1N1CCCCCC1)c1ccccc1', 'NCI-H23 lung', 'TGI', '44.2 µM'),
  ('C=C1CCC[C@@H](C)C(O)[C@@H]2OC(=O)C(=C)[C@@H]2C[C@@H](OC(C)=O)[C@@]2(C)CC[C@@H]1O2 (some centres not stated)', 'NCI-H23 lung', 'TGI', '15.2 µM'),
  ('COC1CC(C)(NC(=O)C(F)(F)F)C2OC(c3ccccc3)OCC2O1 (configuration not stated)', 'NCI-H23 lung', 'TGI', '> 100 µM'),
  ('Cn1/c(=N\N=C2\C=C3CCCCC3(C)CC2)sc2ccccc21 (configuration not stated)', 'NCI-H23 lung', 'TGI', '> 100 µM'),
  ('CCOc1ccc(NC(=O)/C(CC(=O)c2c[n+](=O)c3ccccc3n2[O-])=N\OCCCc2ccccc2)cc1', 'NCI-H23 lung', 'TGI', '> 100 µM'),
  ('CCCC(=O)O[C@]1(C)CC[C@@H]2[C@H]3[C@@H]1[C@@H]1C[C@@](C)(O)[C@H](OC)CC[C@](C)(OC(=O)[C@@H]2C)[C@H]3O1', 'NCI-H23 lung', 'TGI', '> 100 µM'),
  ('COC(=O)C1CC(c2ccc(OC)c(OC)c2)OC1=O (mixture of isomers)', 'NCI-H23 lung', 'TGI', '> 100 µM'),
  ('Cc1nc(NC(C)(CO)CO)nc(N/N=C/c2ccc(Cl)cc2)c1C(=O)Nc1ccc(Cl)cc1', 'NCI-H23 lung', 'TGI', '> 100 µM'),
  ('O=C1c2cc3c(cc2-c2c1c1cc(F)c(F)cc1c(=O)n2CCCn1ccnc1)OCO3', 'NCI-H23 lung', 'TGI', '0.29 µM'),
  ('COC1/C=C/C(C)C(O)CC(O)/C=C/C(C)C(C(C)C(OC)C(C)CCC(=O)C(C)C(C/C=C/N(C)C=O)OC)OC(=O)/C=C/C=C(\C)CC(OC)CC2=CC(=O)O[C@@H](C(C)C(OC)C1)[C@H]2O (some centres not stated)', 'NCI-H23 lung', 'TGI', '0.0437 µM'),
  ('O=C(CC1=Nc2nnc(CCCCCCCc3nnc4n3C(=O)C(CC(=O)c3ccc5ccccc5c3)=N4)n2C1=O)c1ccc2ccccc2c1', 'NCI-H23 lung', 'TGI', '> 100 µM'),
  ('O=c1[nH]c(C2CCCN2)nc2c1oc1ccc(Cl)cc12 (configuration not stated)', 'NCI-H23 lung', 'TGI', '> 100 µM'),
  ('CN(C)CCC(=O)Nc1ccc(-n2cc(-c3cccc(NC(=S)Nc4cccc(-c5cn(-c6ccc(NC(=O)CCN(C)C)cc6)nn5)c4)c3)nn2)cc1', 'NCI-H23 lung', 'TGI', '> 100 µM'),
  ('CCCCCCCC(=O)OCC/C=C/C1OC1C1OC(=O)/C=C\C=C\C(=O)N(C(C)=O)C(=O)/C=C(/C)CCC2OC2C1OC(=O)NC(C)=O (configuration not stated)', 'NCI-H23 lung', 'TGI', '12.8 µM'),
  ('CN(C)C(=S)/N=c1\ss/c(=N\C(=S)N(C)C)n1-c1cccc(Cl)c1', 'NCI-H23 lung', 'TGI', '> 100 µM'),
  ('CCOC(=O)c1c(N)sc2c1C(C(=O)OCC)CCCC2 (configuration not stated)', 'NCI-H23 lung', 'TGI', '> 100 µM'),
  ('Cc1c(C)c2c(c(N)c1C#N)C(=O)N(N)C2=O', 'NCI-H23 lung', 'TGI', '> 100 µM');

====

- Test system: SK-OV-3 ovarian
- assay-explanation: NCI tumour cell line growth inhibition, 48 h
TGI by entry:
assay-metric: TGI

INSERT INTO measurements (molecule, recorded_result) VALUES
  ('CC(=O)CC1(CBr)Nc2ccc([N+](=O)[O-])cc2NC1=O (stereo unspecified)', '> 100 µM'),
  ('C=C(C)C1CC(=O)C(C)=C(O)C1 (stereo unspecified)', '> 100 µM'),
  ('O=C1NC(O)n2c(=O)[nH]c(=O)n21 (stereo unspecified)', '> 100 µM'),
  ('CCCCCCCC(=O)OCC/C=C/C1OC1C1OC(=O)/C=C\C=C\C(=O)N(C(C)=O)C(=O)/C=C(/C)CCC2OC2C1OC(=O)NC(C)=O (stereo unspecified)', '> 25 µM'),
  ('COC1=CC(c2ccc[nH]2)=N/C1=C\c1[nH]c(C)c(C(=O)CCCCCCCCC(=O)O[C@H]2CC[C@H]3C4CCc5cc(O)ccc5C4CC[C@]23C)c1C (stereo partly specified)', '> 50 µM'),
  ('COc1ccc(-n2cc(-c3ccc(OC)c(OC)c3)[nH]c2=O)cc1', '> 100 µM'),
  ('COC(=O)C1C=CCC2CCCCC21N1CCCC1 (stereo unspecified)', '> 100 µM'),
  ('COC1CC(C)(NC(=O)C(F)(F)F)C2OC(c3ccccc3)OCC2O1 (stereo unspecified)', '> 100 µM'),
  ('c1ccc2c(c1)[nH]c1c2nc2ccccn21', '> 100 µM'),
  ('C=C1C(=O)O[C@@H]2/C=C(/C)[C@@H](OC(C)=O)C/C=C(\C)C(O)[C@@H](OC(=O)/C(C)=C\C)C12 (stereo partly specified)', '> 100 µM'),
  ('O=C(CC1=Nc2nnc(CCCCCCCc3nnc4n3C(=O)C(CC(=O)c3ccc5ccccc5c3)=N4)n2C1=O)c1ccc2ccccc2c1', '> 100 µM');
